Target: human Siglec-2/CD22 protein (Homo sapiens, UniProt P20273)
Sequence (P20273 20-847): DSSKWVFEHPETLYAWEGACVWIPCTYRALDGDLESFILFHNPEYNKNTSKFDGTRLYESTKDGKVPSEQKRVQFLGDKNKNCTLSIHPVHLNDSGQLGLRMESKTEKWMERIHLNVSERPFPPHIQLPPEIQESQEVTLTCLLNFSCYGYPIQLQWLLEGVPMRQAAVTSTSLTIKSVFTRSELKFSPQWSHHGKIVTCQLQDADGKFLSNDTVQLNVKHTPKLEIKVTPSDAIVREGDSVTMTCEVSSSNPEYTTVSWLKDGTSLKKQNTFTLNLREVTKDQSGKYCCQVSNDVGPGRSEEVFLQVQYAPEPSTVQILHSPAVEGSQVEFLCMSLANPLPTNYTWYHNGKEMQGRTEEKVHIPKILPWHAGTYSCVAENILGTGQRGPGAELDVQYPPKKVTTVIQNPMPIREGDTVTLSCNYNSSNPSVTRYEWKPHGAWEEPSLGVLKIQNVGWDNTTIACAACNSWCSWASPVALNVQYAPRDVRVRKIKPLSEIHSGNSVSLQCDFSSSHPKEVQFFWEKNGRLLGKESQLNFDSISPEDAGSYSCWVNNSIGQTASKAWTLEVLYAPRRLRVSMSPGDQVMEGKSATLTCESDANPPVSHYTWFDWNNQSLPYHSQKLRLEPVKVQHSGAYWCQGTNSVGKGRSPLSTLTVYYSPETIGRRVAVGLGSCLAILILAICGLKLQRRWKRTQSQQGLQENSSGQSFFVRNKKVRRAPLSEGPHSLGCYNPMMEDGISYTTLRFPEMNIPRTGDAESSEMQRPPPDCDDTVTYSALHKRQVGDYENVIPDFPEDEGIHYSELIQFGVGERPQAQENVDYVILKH
Experiment: SPR binding affinity to human CD22
Conditions: steady-state analysis
Procedure: Prior to immobilization, CD22 proteins were treated with SialoExo (Genovis, Cat #G1-SM1-020) for 4 hours at 37° C. to remove native sialic acid residues. […] Binding experiments of Siglec-ligand conjugated proteins or Siglec ligand compounds were performed on the surfaces prepared above in 10 mM HEPES, 150 mM NaCl, 0.05% Tween-20, pH 7.5, 1% DMSO as the running buffer. […] Data was analyzed using steady-state analysis in Biacore Insight Evaluation Software, version 3.0 for Siglec ligand compounds.
Measurement name: Kd

{"Compound": "C#CCOc1ccc(CO[C@]2(C(=O)O)C[C@H](O)[C@@H](NC(=O)CO)[C@H]([C@H](O)[C@H](O)CNC(=O)Cc3ccc(O)cc3)O2)cc1 [Compound 146]", "Kd": "1 to 10 µM"}
{"Compound": "C#CCOCCCCCCO[C@]1(C(=O)O)C[C@H](O)[C@@H](NC(=O)c2ccccc2)[C@H]([C@H](O)[C@H](O)CNC(=O)Cc2ccc(Cl)cc2)O1 [Compound 92]", "Kd": "< 1 µM"}
{"Compound": "C#CCCOc1ccc(CO[C@]2(C(=O)O)C[C@H](O)[C@@H](NC(=O)CO)[C@H]([C@H](O)[C@H](O)CNC(=O)C3(c4ccc(C(F)(F)F)cc4)CCOCC3)O2)cc1 [Compound 170]", "Kd": "1 to 10 µM"}

Exam item: Look up and report measured Kd for this entry: C#CCCOc1ccc(CO[C@]2(C(=O)O)C[C@H](O)[C@@H](NC(=O)CO)[C@H]([C@H](O)[C@H](O)CNC(=O)Cc3ccc4nn[nH]c4c3)O2)cc1 [Compound 9]
Marked response: 1 to 10 µM

Exam item: Look up and report measured Kd for this entry: O=C(Cc1ccc(Cl)cc1)NC[C@@H](O)[C@@H](O)[C@@H]1O[C@@](SCc2cccc(C(=O)O)c2)(C(=O)O)C[C@H](O)[C@H]1NC(=O)CO [Compound 116]
Marked response: < 1 µM

Exam item: Look up and report measured Kd for this entry: C#CCOCCCCCCO[C@]1(C(=O)O)C[C@H](O)[C@@H](NC(=O)CN(C)C)[C@H]([C@H](O)[C@H](O)CNC(=O)Cc2ccc(Cl)cc2)O1 [Compound 25]
Marked response: > 10 µM

Exam item: Look up and report measured Kd for this entry: CCCNC(=O)CCOCCOCCOCCn1cc(CCOc2ccc(CO[C@]3(C(=O)O)C[C@H](O)[C@@H](NC(N)=O)[C@H]([C@H](O)[C@H](O)CNC(=O)Cc4ccc(Cl)cc4)O3)cc2)nn1 [Compound 222]
Marked response: < 1 µM

* * *

target: mouse Siglec-2-Fc-Avi (CD22) (Mus musculus, UniProt P35329)
Measurement name: Kd

Some solved cases for reference:
{"Smiles text": "C#CCOCCCCCCO[C@]1(C(=O)O)C[C@H](O)[C@@H](NC(=O)CO)[C@H]([C@H](O)[C@H](O)CNC(=O)Cc2ccc(C(C)(C)C)cc2)O1", "Kd": "1 to 10 µM"}
{"Smiles text": "C#CCOP(=O)(O)OCCCCO[C@]1(C(=O)O)C[C@H](O)[C@@H](NC(=O)CO)[C@H]([C@H](O)[C@H](O)CNC(=O)Cc2ccc(Cl)cc2)O1", "Kd": "1 to 10 µM"}
{"Smiles text": "C#CCCOc1ccc(CO[C@]2(C(=O)O)C[C@H](O)[C@@H](NC(C)=O)[C@H]([C@H](O)[C@H](O)CNC(=O)c3cccc(Oc4ccccc4)c3)O2)cc1", "Kd": "> 10 µM"}

Consider the additional compound presented here.
Exam item: Return reported Kd for target or system mouse Siglec-2-Fc-Avi (CD22) (Mus musculus, UniProt P35329), item `C#CCCCCCCO[C@]1(C(=O)O)C[C@H](O)[C@@H](NC(=O)CO)[C@H]([C@H](O)[C@H](O)CNC(=O)C(F)(F)c2ccccc2)O1` .
Marked response: 1 to 10 µM

* * *

target: cynomolgus Siglec-2/CD22 (Macaca fascicularis); assay: biochemical; conditions: SPR, steady-state analysis; read-out: Affinity cyno CD22
Sequence (A0A2K5WCZ6 entry or part of it): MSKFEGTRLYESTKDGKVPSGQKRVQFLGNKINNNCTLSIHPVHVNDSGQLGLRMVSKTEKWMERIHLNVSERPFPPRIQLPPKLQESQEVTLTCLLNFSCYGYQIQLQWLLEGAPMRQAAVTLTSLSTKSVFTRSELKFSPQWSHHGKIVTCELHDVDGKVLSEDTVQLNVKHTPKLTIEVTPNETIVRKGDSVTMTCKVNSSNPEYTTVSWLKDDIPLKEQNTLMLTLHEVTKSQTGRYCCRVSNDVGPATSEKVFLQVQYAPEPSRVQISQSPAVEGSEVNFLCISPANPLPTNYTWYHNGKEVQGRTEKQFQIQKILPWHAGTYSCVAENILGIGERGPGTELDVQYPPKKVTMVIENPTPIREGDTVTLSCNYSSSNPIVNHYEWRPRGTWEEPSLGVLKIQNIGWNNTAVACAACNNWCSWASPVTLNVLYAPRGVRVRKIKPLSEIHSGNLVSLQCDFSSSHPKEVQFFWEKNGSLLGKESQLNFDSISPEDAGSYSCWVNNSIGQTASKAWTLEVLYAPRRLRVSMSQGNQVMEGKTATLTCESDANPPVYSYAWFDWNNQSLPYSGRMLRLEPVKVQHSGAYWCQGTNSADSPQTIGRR
Measurement name: Kd

Some solved cases for reference:
{"Smiles text": "O=C(Cc1ccc(-c2ccc(O)cc2)cc1)NC[C@@H](O)[C@@H](O)[C@@H]1O[C@](C(=O)O)(n2cc(-c3ccccc3O)nn2)C[C@H](O)[C@H]1NC(=O)CO", "Target entity": "cynomolgus Siglec-2/CD22 (Macaca fascicularis)", "Measurement name": "Kd", "Result": "1000 to 10000 nM"}
{"Smiles text": "C#CCOCCOCCNc1c(NCCCCCCO[C@]2(C(=O)O)C[C@H](O)[C@@H](NC(=O)CO)[C@H]([C@H](O)[C@H](O)CNC(=O)c3cccc(C(F)F)c3)O2)c(=O)c1=O", "Target entity": "cynomolgus Siglec-2/CD22 (Macaca fascicularis)", "Measurement name": "Kd", "Result": "1000 to 10000 nM"}
{"Smiles text": "O=C(O)CCCCCCO[C@]1(C(=O)O)C[C@H](O)[C@@H](NC(=O)CO)[C@H]([C@H](O)[C@H](O)CNC(=O)Cc2cccc(O)c2)O1", "Target entity": "cynomolgus Siglec-2/CD22 (Macaca fascicularis)", "Measurement name": "Kd", "Result": "< 1000 nM"}

Consider the additional compound presented here.
Exam item: Return reported Kd for target or system cynomolgus Siglec-2/CD22 (Macaca fascicularis), item `CC(=O)NCCOCCOCCOCCOCCNc1c(NCCCCCCO[C@]2(C(=O)O)C[C@H](O)[C@@H](NC(=O)CO)[C@H]([C@H](O)[C@H](O)CNC(=O)Cc3ccc(-c4nnn[nH]4)cc3)O2)c(=O)c1=O` .
Marked response: < 1000 nM

* * *

target: cynomolgus Siglec-2/CD22 (Macaca fascicularis); assay: biochemical; conditions: SPR, steady-state analysis; read-out: Affinity cyno CD22
Each record here notes measured Kd.

Some solved cases for reference:
{"Smiles text": "C#CCOc1ccc(CO[C@]2(C(=O)O)C[C@H](O)[C@@H](NC(=O)CO)[C@H]([C@H](O)[C@H](O)CNC(=O)Cc3ccc(-c4ccc(O)cc4)cc3C)O2)cc1", "Kd": "1000 to 10000 nM"}
{"Smiles text": "C#CCOCCOCCO[C@]1(C(=O)O)C[C@H](O)[C@@H](NC(=O)C(F)F)[C@H]([C@H](O)[C@H](O)CNC(=O)Cc2ccc(-c3ccc(O)cc3)cc2)O1", "Kd": "1000 to 10000 nM"}
{"Smiles text": "C#CCOc1ccc(CO[C@]2(C(=O)O)C[C@H](O)[C@@H](NC(=O)CO)[C@H]([C@H](O)[C@H](O)CNC(=O)Cc3cccc(F)c3)O2)cc1", "Kd": "1000 to 10000 nM"}
{"Smiles text": "CC(=O)NCCOCCOCCOCCOCCNc1c(NCCCCCCO[C@]2(C(=O)O)C[C@H](O)[C@@H](NC(C)=O)[C@H]([C@H](O)[C@H](O)CNC(=O)c3cccc(Cl)c3)O2)c(=O)c1=O", "Kd": "1000 to 10000 nM"}
{"Smiles text": "C#CCCOc1ccc(CO[C@]2(C(=O)O)C[C@H](O)[C@@H](NC(=O)NC)[C@H]([C@H](O)[C@H](O)CNC(=O)Cc3ccc(-c4ccc(O)cc4)cc3)O2)cc1", "Kd": "< 1000 nM"}
{"Smiles text": "C#CCOCCOCCO[C@]1(C(=O)O)C[C@H](O)[C@@H](NC(=O)CO)[C@H]([C@H](O)[C@H](O)CNC(=O)Cc2cccc(-c3ccccc3)c2)O1", "Kd": "1000 to 10000 nM"}

Exam item: Look up and report measured Kd for this entry: `C#CCCCCCCc1cn([C@]2(C(=O)O)C[C@H](O)[C@@H](NC(=O)CO)[C@H]([C@H](O)[C@H](O)CNC(=O)Cc3ccc(Cl)cc3)O2)nn1`
Marked response: 1000 to 10000 nM

Exam item: Look up and report measured Kd for this entry: `C#CCOCCCCCCO[C@]1(C(=O)O)C[C@H](O)[C@@H](NC(=O)C(F)(F)F)[C@H]([C@H](O)[C@H](O)CNC(=O)Cc2ccc(Cl)cc2)O1`
Marked response: < 1000 nM

Exam item: Look up and report measured Kd for this entry: `C#CCOCCNC(=O)NCCCCCCO[C@]1(C(=O)O)C[C@H](O)[C@@H](NC(=O)CO)[C@H]([C@H](O)[C@H](O)CNC(=O)Cc2ccc(Cl)cc2)O1`
Marked response: < 1000 nM

* * *

Target: mouse Siglec-2-Fc-Avi (CD22) (Mus musculus)
Sequence (P35329 22-708 limits assumed): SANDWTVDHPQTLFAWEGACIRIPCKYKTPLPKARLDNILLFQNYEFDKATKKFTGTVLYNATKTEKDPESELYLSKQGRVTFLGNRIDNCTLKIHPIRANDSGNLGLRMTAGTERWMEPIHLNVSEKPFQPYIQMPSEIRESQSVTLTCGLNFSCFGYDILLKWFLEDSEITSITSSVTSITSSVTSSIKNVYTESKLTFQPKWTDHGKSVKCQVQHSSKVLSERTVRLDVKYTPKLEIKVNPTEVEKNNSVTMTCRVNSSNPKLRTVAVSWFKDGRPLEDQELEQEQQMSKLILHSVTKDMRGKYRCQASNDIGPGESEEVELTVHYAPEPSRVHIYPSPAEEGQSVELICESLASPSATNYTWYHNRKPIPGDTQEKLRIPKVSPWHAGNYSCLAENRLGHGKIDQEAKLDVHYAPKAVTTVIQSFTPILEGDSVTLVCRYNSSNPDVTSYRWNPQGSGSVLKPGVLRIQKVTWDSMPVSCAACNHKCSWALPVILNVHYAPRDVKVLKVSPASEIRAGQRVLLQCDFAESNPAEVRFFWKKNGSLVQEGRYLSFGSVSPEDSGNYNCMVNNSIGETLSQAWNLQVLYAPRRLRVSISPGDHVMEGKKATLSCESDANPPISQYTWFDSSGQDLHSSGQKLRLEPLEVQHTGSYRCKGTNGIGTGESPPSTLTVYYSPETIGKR
pKd: −log10 of the molar value.
Each record here notes measured pKd.

Some solved cases for reference:
{"Smiles text": "C#CCOCCOCCNc1c(NCCCCCCO[C@]2(C(=O)O)C[C@H](O)[C@@H](NC(=O)CO)[C@H]([C@H](O)[C@H](O)CNC(=O)C(F)(F)c3ccccc3)O2)c(=O)c1=O", "Measurement name": "pKd", "Result": "5.00 to 6.00"}
{"Smiles text": "O=C(O)CCOCCOCCOCCOCCNc1c(NCCCCCCO[C@]2(C(=O)O)C[C@H](O)[C@@H](NC(=O)CO)[C@H]([C@H](O)[C@H](O)CNC(=O)Cc3ccc(Cl)cc3)O2)c(=O)c1=O", "Measurement name": "pKd", "Result": "> 6.00"}
{"Smiles text": "C#CCCOc1ccc(CO[C@]2(C(=O)O)C[C@H](O)[C@@H](NC(=O)CO)[C@H]([C@H](O)[C@H](O)CNC(=O)C3(c4ccc(C(F)(F)F)cc4)CCOCC3)O2)cc1", "Measurement name": "pKd", "Result": "5.00 to 6.00"}

Exam item: Look up and report measured pKd for this entry: `C#CCCCCCCc1cn([C@]2(C(=O)O)C[C@H](O)[C@@H](NC(=O)CO)[C@H]([C@H](O)[C@H](O)CNC(=O)Cc3cccc(O)c3)O2)nn1`
Marked response: 5.00 to 6.00

Exam item: Look up and report measured pKd for this entry: `C#CCOCCCCCCS[C@]1(C(=O)O)C[C@H](O)[C@@H](NC(=O)CO)[C@H]([C@H](O)[C@H](O)CNC(=O)Cc2ccc(Cl)cc2)O1`
Marked response: > 6.00

Exam item: Look up and report measured pKd for this entry: `CC(=O)NCCOCCOCCOCCOCc1cn(CCCCCCO[C@]2(C(=O)O)C[C@H](O)[C@@H](NC(=O)CO)[C@H]([C@H](O)[C@H](O)CNC(=O)Cc3ccc(Cl)cc3)O2)nn1`
Marked response: > 6.00

Exam item: Look up and report measured pKd for this entry: `C#CCOCCCCCCO[C@]1(C(=O)O)C[C@H](O)[C@@H](NC(=O)C(=O)Nc2ccccc2)[C@H]([C@H](O)[C@H](O)CNC(=O)Cc2ccc(Cl)cc2)O1`
Marked response: 5.00 to 6.00

Exam item: Look up and report measured pKd for this entry: `O=C(Cc1ccc(Cl)cc1)NC[C@@H](O)[C@@H](O)[C@@H]1O[C@@](SCc2cccc(C(=O)O)c2)(C(=O)O)C[C@H](O)[C@H]1NC(=O)CO`
Marked response: 5.00 to 6.00
